- Target or system: T1, human MSR1 extracellular domain expressed with a N-terminal nonahistidine tag (His9-hMSR1); R&D Systems, Cat … (human, UniProt P21757 77-451)
- T1 construct: extracellular domain; also called His-hMSR1; 9xHis-hMSR1; not shown: N-terminal nonahistidine tag
- T1 sequence (looked up): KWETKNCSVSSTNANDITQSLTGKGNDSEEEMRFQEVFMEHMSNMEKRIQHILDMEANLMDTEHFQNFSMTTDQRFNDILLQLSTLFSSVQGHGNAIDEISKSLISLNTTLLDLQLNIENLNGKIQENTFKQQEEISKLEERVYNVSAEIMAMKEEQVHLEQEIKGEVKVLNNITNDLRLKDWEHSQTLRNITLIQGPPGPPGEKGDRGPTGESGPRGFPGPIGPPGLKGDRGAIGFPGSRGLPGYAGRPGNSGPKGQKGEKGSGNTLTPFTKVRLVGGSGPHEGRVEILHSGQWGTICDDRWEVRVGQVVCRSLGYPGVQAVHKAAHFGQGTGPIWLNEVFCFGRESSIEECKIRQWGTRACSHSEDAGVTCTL
- Measurement description: SPR Biacore, 25 C, antibody captured;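 also: rates from 1:1 fit with mass transport limitation of real-time sensorgrams, HEPES-buffered saline with EDTA and Tween-20 at pH 7.4, KD and t½ derived from the kinetic rates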

Binder: H1H27729P-N297Q (antibody, V domains shown, Human IgG1 Fc with N297Q point mutation) VH: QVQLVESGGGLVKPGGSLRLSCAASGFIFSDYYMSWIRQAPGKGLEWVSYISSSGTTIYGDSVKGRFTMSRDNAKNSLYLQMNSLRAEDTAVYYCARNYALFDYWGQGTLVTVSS VL: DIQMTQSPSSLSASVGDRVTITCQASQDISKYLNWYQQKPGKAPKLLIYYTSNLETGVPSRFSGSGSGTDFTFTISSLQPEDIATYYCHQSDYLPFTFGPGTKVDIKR
Result unit: min
t½: 11
//
Binder: H1H27734P-N297Q (antibody, V domains shown, Human IgG1 Fc with N297Q point mutation) VH: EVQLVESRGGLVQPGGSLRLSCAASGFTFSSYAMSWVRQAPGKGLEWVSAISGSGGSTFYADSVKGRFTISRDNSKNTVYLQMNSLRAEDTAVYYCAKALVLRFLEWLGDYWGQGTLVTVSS VL: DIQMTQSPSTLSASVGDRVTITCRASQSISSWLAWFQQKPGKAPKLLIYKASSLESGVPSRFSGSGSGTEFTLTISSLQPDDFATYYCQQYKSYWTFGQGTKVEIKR
Result unit: min
t½: 10
//
Binder: H1H27731P-N297Q (antibody, V domains shown, Human IgG1 Fc with N297Q point mutation) VH: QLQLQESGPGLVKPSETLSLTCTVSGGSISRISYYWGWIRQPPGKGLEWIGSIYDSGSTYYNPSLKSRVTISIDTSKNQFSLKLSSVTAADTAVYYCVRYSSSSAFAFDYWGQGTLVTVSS VL: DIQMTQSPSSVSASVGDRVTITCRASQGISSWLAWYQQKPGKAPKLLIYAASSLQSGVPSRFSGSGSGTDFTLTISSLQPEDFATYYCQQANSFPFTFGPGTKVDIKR
Result unit: min
t½: 515
//
Binder: H1H27739P-N297Q (antibody, V domains shown, Human IgG1 Fc with N297Q point mutation) VH: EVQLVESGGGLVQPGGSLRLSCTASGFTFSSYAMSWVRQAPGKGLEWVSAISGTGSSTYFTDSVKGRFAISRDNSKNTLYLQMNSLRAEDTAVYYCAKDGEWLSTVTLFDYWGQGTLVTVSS VL: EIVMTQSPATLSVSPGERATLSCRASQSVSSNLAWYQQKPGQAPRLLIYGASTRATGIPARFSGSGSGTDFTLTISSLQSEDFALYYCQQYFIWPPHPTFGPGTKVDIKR
Result unit: min
t½: 11
